Attribution: paper PMC7961380

- Assay info: Metabolic stability, pooled human liver microsome incubations
- Reported conditions: pHLM, 3 min
For each of the compounds below, state its % parent compound remaining, Average.
Give bare numbers, in %.

1. COC(=O)[C@H](NC(=O)c1nn(CCCCCF)c2ccccc12)C(C)(C)C [(R)-5F-MDMB-PINACA (2)] | 71.1
2. C=CCCCn1nc(C(=O)N[C@@H](C(=O)OC)C(C)(C)C)c2ccccc21 [(R)-MDMB-4en-PINACA (5)] | 68.4

Attention now turns to another entry.
Record COC(=O)[C@@H](NC(=O)c1nn(Cc2ccc(F)cc2)c2ccccc12)C(C)(C)C [(S)-MDMB-FUBINACA (6)] , field % parent compound remaining, Average: 70.2

====

- System: pooled human cryopreserved hepatocytes (pHHeps)
- Assay info: Metabolic stability, pooled human cryopreserved hepatocyte incubations
- Reported conditions: pHHeps, 9 min
Mark each entry met if its % parent compound remaining, Average sits below 80%, and not met for all others.

Solved cases (8 shown):
1) CC(C)[C@@H](NC(=O)c1nn(Cc2ccc(F)cc2)c2ccccc12)C(N)=O [(R)-AB-FUBINACA (8)] | not met
2) COC(=O)C(NC(=O)c1nn(CCCCCF)c2ccccc12)C(C)C (stereo in doubt) [(R)-5F-AMB-PINACA (10)] | met
3) COC(=O)[C@@H](NC(=O)c1cn(CC2CCCCC2)c2ccccc12)C(C)C [(S)-AMB-CHMICA (9)] | met
4) COC(=O)[C@H](NC(=O)c1nn(Cc2ccc(F)cc2)c2ccccc12)C(C)(C)C [(R)-MDMB-FUBINACA (6)] | met
5) O=c1ccc2ccc(O)cc2o1 [7-hydroxycoumarin, reference compound] | not met
6) COC(=O)[C@@H](NC(=O)c1nn(CCCCCF)c2ccccc12)C(C)C [(S)-5F-AMB-PINACA (10)] | met
7) C=CCCCn1cc(C(=O)N[C@@H](C(=O)OC)C(C)C)c2ccccc21 [(R)-AMB-4en-PICA (7)] | met
8) COC(=O)[C@@H](NC(=O)c1nn(Cc2ccc(F)cc2)c2ccccc12)C(C)C [(S)-AMB-FUBINACA (1)] | met

## Input Item CC(C)[C@H](NC(=O)c1nn(Cc2ccc(F)cc2)c2ccccc12)C(N)=O [(S)-AB-FUBINACA (8)] : % parent compound remaining, Average beneath 80%, strictly?
## Output not met

## Input Item COC(=O)[C@@H](NC(=O)c1cn(CCCCCF)c2ccccc12)C(C)(C)C [(S)-5F-MDMB-PICA (3)] : % parent compound remaining, Average beneath 80%, strictly?
## Output not met

====

- Test system: pooled human cryopreserved hepatocytes (pHHeps)
- Assay info: Metabolic stability, pooled human cryopreserved hepatocyte incubations
- Reported conditions: pHHeps, 3 min
For each of the compounds below, state its % parent compound remaining, Average.

1) COC(=O)[C@@H](NC(=O)c1nn(CCCCF)c2ccccc12)C(C)(C)C [(S)-4F-MDMB-BINACA (4)] | 82.3%
2) C=CCCCn1nc(C(=O)N[C@H](C(=O)OC)C(C)(C)C)c2ccccc21 [(S)-MDMB-4en-PINACA (5)] | 79.7%

Attention now turns to another entry.
Record C=CCCCn1nc(C(=O)N[C@@H](C(=O)OC)C(C)(C)C)c2ccccc21 [(R)-MDMB-4en-PINACA (5)] , field % parent compound remaining, Average: 80.8%

====

- Tested on: pooled human cryopreserved hepatocytes (pHHeps)
- Assay info: Metabolic stability, pooled human cryopreserved hepatocyte incubations
- Reported conditions: pHHeps, 6 min
For each of the compounds below, state its % parent compound remaining, Average.

Some compounds with recorded % parent compound remaining, Average:
1. C=CCCCn1nc(C(=O)N[C@H](C(=O)OC)C(C)(C)C)c2ccccc21 [(S)-MDMB-4en-PINACA (5)] | 69.0%
2. COC(=O)[C@@H](NC(=O)c1nn(CCCCCF)c2ccccc12)C(C)(C)C [(S)-5F-MDMB-PINACA (2)] | 66.9%
3. COC(=O)[C@@H](NC(=O)c1nn(Cc2ccc(F)cc2)c2ccccc12)C(C)C [(S)-AMB-FUBINACA (1)] | 18.7%

Record C=CCCCn1cc(C(=O)N[C@H](C(=O)OC)C(C)(C)C)c2ccccc21 [(S)-MDMB-4en-PICA (12)] , field % parent compound remaining, Average: 83.7%
